Measured values drawn from paper PMC2822479 for this set.

# measured.on: human KISS1R (Homo sapiens)
# Sequence (Q969F8 whole entry): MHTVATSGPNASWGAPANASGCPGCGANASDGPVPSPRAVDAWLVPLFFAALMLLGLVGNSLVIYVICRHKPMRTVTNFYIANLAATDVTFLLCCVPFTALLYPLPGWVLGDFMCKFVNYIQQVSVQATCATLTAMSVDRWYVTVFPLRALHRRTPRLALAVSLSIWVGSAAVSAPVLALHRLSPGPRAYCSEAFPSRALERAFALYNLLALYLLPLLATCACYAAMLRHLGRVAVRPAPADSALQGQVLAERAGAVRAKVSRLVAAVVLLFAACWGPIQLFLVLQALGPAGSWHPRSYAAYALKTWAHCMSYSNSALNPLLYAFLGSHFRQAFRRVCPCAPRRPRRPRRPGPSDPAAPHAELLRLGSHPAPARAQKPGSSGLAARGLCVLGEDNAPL
pIC50: −log10 of the molar value. Where a SMILES comes first, the peptide text is derived from it.
So basically: pIC50 at 8 or higher? That is YES. Lower than 8? That is NO.

CC(C)C[C@H](NC(=O)CNC(=O)[C@H](Cc1ccccc1)NC(=O)[C@H](CO)NC(=O)[C@H](CC(N)=O)NC(=O)[C@H](Cc1c[nH]c2ccccc12)NC(=O)[C@H](CC(N)=O)NC(=O)[C@@H](N)Cc1ccc(O)cc1)C(=O)N[C@@H](C)C(=O)N[C@@H](Cc1ccccc1)C(N)=O [ANA9] (H-YNWNSFGLAF-NH2) = NO
CC(C)C[C@H](NC(=O)CNC(=O)[C@H](Cc1ccccc1)NC(=O)[C@H](CO)NC(=O)[C@H](CC(N)=O)NC(=O)[C@H](Cc1c[nH]c2ccccc12)NC(=O)[C@H](CC(N)=O)NC(=O)[C@@H](N)Cc1ccccc1)C(=O)N[C@@H](CCCNC(=N)N)C(=O)N[C@@H](Cc1ccccc1)C(N)=O [ANA11] (H-FNWNSFGLRF-NH2) = YES
CC(C)C[C@H](NC(=O)CNC(=O)[C@H](Cc1ccccc1)NC(=O)[C@H](CO)NC(=O)[C@H](CC(N)=O)NC(=O)[C@H](Cc1c[nH]c2ccccc12)NC(=O)[C@H](CC(N)=O)NC(=O)[C@@H](N)Cc1ccc(O)cc1)C(=O)N[C@@H](CCCNC(=N)N)C(=O)N[C@H](Cc1ccccc1)C(N)=O = NO
CC(C)C[C@H](NC(=O)CNC(=O)[C@H](Cc1ccc(O)cc1)NC(=O)[C@H](CO)NC(=O)[C@H](CC(N)=O)NC(=O)[C@H](Cc1c[nH]c2ccccc12)NC(=O)[C@H](CC(N)=O)NC(=O)[C@@H](N)Cc1ccc(O)cc1)C(=O)N[C@@H](CCCNC(=N)N)C(=O)N[C@@H](Cc1ccccc1)C(N)=O [ANA15] (H-YNWNSYGLRF-NH2) = NO
CC(C)C[C@H](NC(=O)CNC(=O)[C@H](Cc1ccccc1)NC(=O)[C@H](CO)NC(=O)[C@H](CC(N)=O)NC(=O)[C@H](Cc1c[nH]c2ccccc12)NC(=O)[C@H](CC(=O)O)NC(=O)[C@@H](N)Cc1ccc(O)cc1)C(=O)N[C@@H](CCCNC(=N)N)C(=O)N[C@@H](Cc1ccccc1)C(N)=O [ANA12] (H-YDWNSFGLRF-NH2) = NO
CC(C)C[C@H](NC(=O)CNC(=O)[C@H](C)NC(=O)[C@H](CO)NC(=O)[C@H](CC(N)=O)NC(=O)[C@H](Cc1c[nH]c2ccccc12)NC(=O)[C@H](CC(N)=O)NC(=O)[C@@H](N)Cc1ccc(O)cc1)C(=O)N[C@@H](CCCNC(=N)N)C(=O)N[C@@H](Cc1ccccc1)C(N)=O [ANA6] (H-YNWNSAGLRF-NH2) = NO
